Data origin, for the record: PubChem BioAssay (NCI)

Test system: SF-295 CNS
experimental-details: NCI tumour cell line growth inhibition, 48 h
observable: TGI

Field: example entries. Status: answers known.
1) CC1(C)OCC2(CO1)CSCCCSCC1(COC(C)(C)OC1)CSCCCSC2: > 100 µM
2) Oc1ccc(Cl)cc1-c1[nH]c(=S)nc(-c2ccccc2)c1Cl: > 87.8 µM
3) C/C(=N/NC(=O)c1ccncc1)c1ccc(NC(=O)C(=O)Nn2c(=S)[nH]c3ccccc3c2=O)cc1: > 100 µM
4) CCCCC1Cc2ccccc2-c2n1c1ccccc1[n+]2C (stereo not given): > 100 µM

State the recorded TGI for this entry: COC(=O)c1ccc(Oc2nc3ccccc3nc2-c2cccs2)cc1
48 µM
